Data provenance: ChEMBL document CHEMBL3045650

- System: Amaranthus retroflexus
- assay_details: Post-emergence herbicidal activity against Amaranthus retroflexus assessed as growth inhibition at emulsified concentrate of 150 g/ai ha after 15 days by greenhouse test
- Format: functional
test_readout: inhibition (INH)

Consider the following illustrative entries.
{"compound": "CCOC(=O)CSc1nc2cc(-n3nc(C(C)(C)C)oc3=O)c(Cl)cc2s1", "inhibition (INH)": "70%"}
{"compound": "COC(=O)CSc1nc2cc(-n3nc(C(C)(C)C)oc3=O)c(F)cc2s1", "inhibition (INH)": "60%"}
{"compound": "COC(=O)/C=C/CSc1nc2cc(-n3nc(C(C)(C)C)oc3=O)c(F)cc2s1", "inhibition (INH)": "40%"}

// field: inhibition (INH); key: `CC(C)OC(=O)CSc1nc2cc(-n3nc(C(C)(C)C)oc3=O)c(Cl)cc2s1` ; value = 50%

// field: inhibition (INH); key: CCOC(=O)C(C)Sc1nc2cc(-n3nc(C(C)(C)C)oc3=O)c(Br)cc2s1 (stereo unspecified) ; value = 70%

// field: inhibition (INH); key: `CC(C)OC(=O)CSc1nc2cc(-n3nc(C(C)(C)C)oc3=O)c(Br)cc2s1` ; value = 75%

// field: inhibition (INH); key: `CCOC(=O)CSc1nc2cc(-n3nc(C(C)(C)C)oc3=O)c(F)cc2s1` ; value = 90%

// field: inhibition (INH); key: `CCOC(=O)CCSc1nc2cc(-n3nc(C(C)(C)C)oc3=O)c(Cl)cc2s1` ; value = 80%

// field: inhibition (INH); key: `CCOC(=O)Sc1nc2cc(-n3nc(C(C)(C)C)oc3=O)c(F)cc2s1` ; value = 0%

// field: inhibition (INH); key: `COC(=O)CSc1nc2cc(-n3nc(C(C)(C)C)oc3=O)c(Cl)cc2s1` ; value = 70%

// field: inhibition (INH); key: `C#CCSc1nc2cc(-n3nc(C(C)(C)C)oc3=O)c(Br)cc2s1` ; value = 40%

// field: inhibition (INH); key: `CCOC(=O)CCSc1nc2cc(-n3nc(C(C)(C)C)oc3=O)c(F)cc2s1` ; value = 50%

// field: inhibition (INH); key: `CCOC(=O)C(C)(C)Sc1nc2cc(-n3nc(C(C)(C)C)oc3=O)c(Cl)cc2s1` ; value = 50%

// field: inhibition (INH); key: `CC(C)(C)c1nn(-c2cc3nc(SCC=C(Cl)Cl)sc3cc2Cl)c(=O)o1` ; value = 70%

---

- system_tested: Protoporphyrinogen oxidase (Homo sapiens, UniProt P50336)
- Sequence (P50336 whole entry): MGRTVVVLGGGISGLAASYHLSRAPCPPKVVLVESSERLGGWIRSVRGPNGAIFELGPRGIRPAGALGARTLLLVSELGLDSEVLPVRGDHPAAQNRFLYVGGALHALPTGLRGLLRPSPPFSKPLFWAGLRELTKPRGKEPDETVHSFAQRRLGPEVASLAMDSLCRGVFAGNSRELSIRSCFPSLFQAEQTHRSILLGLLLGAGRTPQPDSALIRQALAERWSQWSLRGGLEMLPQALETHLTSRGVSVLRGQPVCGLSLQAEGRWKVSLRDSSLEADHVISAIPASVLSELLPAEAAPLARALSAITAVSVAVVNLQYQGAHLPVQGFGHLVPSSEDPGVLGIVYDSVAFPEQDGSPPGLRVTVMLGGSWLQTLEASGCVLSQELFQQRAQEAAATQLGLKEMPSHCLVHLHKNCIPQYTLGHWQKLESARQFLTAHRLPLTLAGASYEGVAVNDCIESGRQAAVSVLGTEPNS
- assay_details: Inhibition of Homo sapiens (human) recombinant protoporphyrinogen oxidase expressed in Escherichia coli JM109 assessed as oxidation of protoporphyrinogen IX substrate by fluorescence assay
test_readout: pKi
A value of pKi is the negative decimal logarithm of a concentration given in moles per litre.

Consider the following illustrative entries.
{"compound_smiles": "CCOC(=O)C(C)(C)Sc1nc2cc(-n3nc(C(C)(C)C)oc3=O)c(F)cc2s1", "system_tested": "Protoporphyrinogen oxidase (Homo sapiens, UniProt P50336)", "observed": 5.81}
{"compound_smiles": "CCOC(=O)CCSc1nc2cc(-n3nc(C(C)(C)C)oc3=O)c(Br)cc2s1", "system_tested": "Protoporphyrinogen oxidase (Homo sapiens, UniProt P50336)", "observed": 5.77}
{"compound_smiles": "CCOC(=O)C(C)(C)Sc1nc2cc(-n3nc(C(C)(C)C)oc3=O)c(Cl)cc2s1", "system_tested": "Protoporphyrinogen oxidase (Homo sapiens, UniProt P50336)", "observed": 5.87}
{"compound_smiles": "COC(=O)CSc1nc2cc(-n3nc(C(C)(C)C)oc3=O)c(Br)cc2s1", "system_tested": "Protoporphyrinogen oxidase (Homo sapiens, UniProt P50336)", "observed": 5.13}

// field: pKi; key: `CCCOC(=O)CSc1nc2cc(-n3nc(C(C)(C)C)oc3=O)c(Br)cc2s1` ; value = 5.51

---

- System: Eclipta prostrata
- assay_details: Post-emergence herbicidal activity against Eclipta prostrata assessed as growth inhibition at emulsified concentrate of 75 g/ai ha after 15 days by greenhouse test
- Format: functional
test_readout: inhibition (INH)
Could you write the number and then its unit?

Consider the following illustrative entries.
{"molecule": "CCOC(=O)C(C)Sc1nc2cc(-n3nc(C(C)(C)C)oc3=O)c(Cl)cc2s1 (stereo not drawn)", "system_tested": "Eclipta prostrata", "inhibition (INH)": "40%"}
{"molecule": "CC(C)OC(=O)CSc1nc2cc(-n3nc(C(C)(C)C)oc3=O)c(F)cc2s1", "system_tested": "Eclipta prostrata", "inhibition (INH)": "0%"}
{"molecule": "CCOC(=O)C(C)Sc1nc2cc(-n3nc(C(C)(C)C)oc3=O)c(F)cc2s1 (stereo not drawn)", "system_tested": "Eclipta prostrata", "inhibition (INH)": "85%"}
{"molecule": "CCOC(=O)CCSc1nc2cc(-n3nc(C(C)(C)C)oc3=O)c(Cl)cc2s1", "system_tested": "Eclipta prostrata", "inhibition (INH)": "60%"}
{"molecule": "CCOC(=O)CSc1nc2cc(-n3nc(C(C)(C)C)oc3=O)c(F)cc2s1", "system_tested": "Eclipta prostrata", "inhibition (INH)": "0%"}
{"molecule": "COC(=O)CSc1nc2cc(-n3nc(C(C)(C)C)oc3=O)c(Br)cc2s1", "system_tested": "Eclipta prostrata", "inhibition (INH)": "0%"}
{"molecule": "CCCOC(=O)CSc1nc2cc(-n3nc(C(C)(C)C)oc3=O)c(F)cc2s1", "system_tested": "Eclipta prostrata", "inhibition (INH)": "40%"}

The record that follows has no inhibition (INH) shown yet.
// field: inhibition (INH); key: `CCOC(=O)CCCSc1nc2cc(-n3nc(C(C)(C)C)oc3=O)c(F)cc2s1` ; value = 60%

---

- system_tested: Protoporphyrinogen oxidase (Homo sapiens)
- assay_details: Inhibition of Homo sapiens (human) recombinant protoporphyrinogen oxidase expressed in Escherichia coli JM109 assessed as oxidation of protoporphyrinogen IX substrate by fluorescence assay
Exam item: assign class 1 to entries whose Ki is below 1 µM and class 0 to entries at or above 1 µM. Note that a value of exactly 1 µM receives class 0.

Here's what some known entries look like.
{"molecule": "CCOC(=O)Sc1nc2cc(-n3nc(C(C)(C)C)oc3=O)c(Cl)cc2s1", "label": "class 1"}
{"molecule": "Cc1nn(-c2cc(NS(C)(=O)=O)c(Cl)cc2Cl)c(=O)n1C(F)F [SULFENTRAZONE]", "label": "class 1"}
{"molecule": "COC(=O)CSc1nc2cc(-n3nc(C(C)(C)C)oc3=O)c(Cl)cc2s1", "label": "class 0"}
{"molecule": "CC(C)OC(=O)CSc1nc2cc(-n3nc(C(C)(C)C)oc3=O)c(Br)cc2s1", "label": "class 0"}
{"molecule": "CCOC(=O)CCSc1nc2cc(-n3nc(C(C)(C)C)oc3=O)c(F)cc2s1", "label": "class 1"}
{"molecule": "CCOC(=O)C(C)Sc1nc2cc(-n3nc(C(C)(C)C)oc3=O)c(Cl)cc2s1 (stereo not given)", "label": "class 0"}
{"molecule": "C#CCSc1nc2cc(-n3nc(C(C)(C)C)oc3=O)c(Br)cc2s1", "label": "class 0"}
{"molecule": "CCOC(=O)C(C)Sc1nc2cc(-n3nc(C(C)(C)C)oc3=O)c(F)cc2s1 (stereo not given)", "label": "class 0"}
{"molecule": "CC(C)(C)c1nn(-c2cc3nc(SCC=C(Cl)Cl)sc3cc2Br)c(=O)o1", "label": "class 0"}

Alright, here's another molecule for you.
Prompt line: Just wondering, is Ki of `CC(C)(C)c1nn(-c2cc3nc(SCC=C(Cl)Cl)sc3cc2Cl)c(=O)o1` below 1 µM?
Response line: class 0
